- Test system: UACC-257
- Test Summary: cells
- Type: functional, cell-based, Homo sapiens
- Setup Conditions: uacc-257
- Description: SANGER: Inhibition of human UACC-257 cell growth in a cell viability assay.
Experimental Readout: IC50 (µM)
Write the value in µM as a bare number.

CISPLATIN = 108

From here, focus on the item given below.
In: Output measured IC50 for this item: BLEOMYCIN
Out: 234

====

- Tested on: NCI-H650;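 note: growth inhibition of NCI-H650 cells, read out by a viability assay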
- Test Summary: cells
- Type: functional, cell-based, Homo sapiens
- Setup Conditions: Homo sapiens, NCI-H650
- Description: SANGER: Inhibition of human NCI-H650 cell growth in a cell viability assay.
Each entry below lists one item and its recorded IC50 value.

Would you please look over these solved cases?
Cc1cc([N+](=O)[O-])ccc1NS(=O)(=O)c1cc(Cl)ccc1Cl = 2780 nM
Cc1cn(-c2cc(NC(=O)c3ccc(C)c(Nc4nccc(-c5cccnc5)n4)c3)cc(C(F)(F)F)c2)cn1 = > 2000 nM
CC1(C)CNc2cc(NC(=O)c3cccnc3NCc3ccncc3)ccc21 = > 2000 nM
Nc1ccn([C@@H]2O[C@H](CO)[C@@H](O)C2(F)F)c(=O)n1 = 566 nM

In: Quick one: give measured IC50 for CCC/C=C/C=C/C(=O)O[C@H]1/C(=C/C(=O)OC)C[C@H]2C[C@H]([C@@H](C)O)OC(=O)C[C@H](O)C[C@@H]3C[C@H](OC(C)=O)C(C)(C)[C@](O)(C[C@@H]4C/C(=C/C(=O)OC)C[C@H](/C=C/C(C)(C)[C@]1(O)O2)O4)O3
Out: > 8 nM

In: Given CC(C)CCN1c2nc(Nc3cc(F)c(O)c(F)c3)ncc2N(C)C(=O)C1C (stereo unspecified) , respond with its IC50.
Out: > 5000 nM

====

- Tested on: MDA-MB-157
- Test Summary: cells
- Format: functional, cell-based, Homo sapiens
- Setup Conditions: Homo sapiens, MDA-MB-157
- Description: SANGER: Inhibition of human MDA-MB-157 cell growth in a cell viability assay.
Each entry below carries its reported IC50.

Field: example entries. Status: answers known.
C=C(c1ccc(C(=O)O)cc1)c1cc2c(cc1C)C(C)(C)CCC2(C)C = > 8 µM
Cc1cn(-c2cc(NC(=O)c3ccc(C)c(Nc4nccc(-c5cccnc5)n4)c3)cc(C(F)(F)F)c2)cn1 = > 2 µM
COc1cc2c(Nc3ccc(NC(=O)c4ccccc4)cc3)ncnc2cc1OCCCN1CCOCC1 = > 4 µM

In: // Input: Nc1cccc2c1CN(C1CCC(=O)NC1=O)C2=O (stereo not drawn) [LENALIDOMIDE] . Output its IC50 only.
Out: > 5 µM

In: Tell me its IC50 given N#Cc1c(O)c2c(-c3ccc(-c4ccccc4O)cc3)csc2[nH]c1=O as the entry.
Out: 0.824 µM

In: Hello, please tell me recorded IC50 for this one: CCN(CC)CCCCNc1ncc2cc(-c3cc(OC)cc(OC)c3)c(NC(=O)NC(C)(C)C)nc2n1
Out: > 2 µM

In: Let me know recorded IC50 for COc1cccc2c1C(=O)c1c(O)c3c(c(O)c1C2=O)C[C@@](O)(C(=O)CO)C[C@@H]3O[C@H]1C[C@H](N)[C@H](O)[C@H](C)O1 , thanks.
Out: 0.499 µM

In: Return IC50 for the following compound: CS(=O)(=O)c1ccc(C(=O)Nc2ccc(Cl)c(-c3ccccn3)c2)c(Cl)c1
Out: > 10 µM

====

- Test system: 8-MG-BA;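 note: growth inhibition of 8-MG-BA cells, read out with a cell viability assay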
- Test Summary: cells
- Type: functional, cell-based, Homo sapiens
- Setup Conditions: Homo sapiens, 8-MG-BA
- Description: SANGER: Inhibition of human 8-MG-BA cell growth in a cell viability assay.
Experimental Readout: IC50 (µM)
Could you give me the number in µM? Just the number is fine.

Cc1cc([N+](=O)[O-])ccc1NS(=O)(=O)c1cc(Cl)ccc1Cl = 3.7

In: Assign IC50 to the following record: COc1cc2ncn(-c3cc(OCc4ccccc4C(F)(F)F)c(C(N)=O)s3)c2cc1OC [GW843682X]
Out: 0.0194

In: Please report IC50 for the following compound: COc1cc(-c2nn([C@H]3CC[C@H](N4CCN(C(C)=O)CC4)CC3)c3ncnc(N)c23)ccc1NC(=O)c1cc2ccccc2n1C
Out: 4.61

In: Specify IC50 for CCN(CC)CCNC(=O)c1c(C)[nH]c(/C=C2\C(=O)Nc3ccc(F)cc32)c1C and stop.
Out: 6.52

In: Please report the measured IC50 for Nc1ccn([C@@H]2O[C@H](CO)[C@@H](O)C2(F)F)c(=O)n1
Out: 0.00593

====

Property: pIC50; scope: individual compounds
- Test system: NCI-H345;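 note: growth inhibition of NCI-H345 cells measured with a cell viability assay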
- Test Summary: cells
- Assay type: functional, cell-based, Homo sapiens
- Setup Conditions: Homo sapiens, NCI-H345
- Description: SANGER: Inhibition of human NCI-H345 cell growth in a cell viability assay.
pIC50: −log10 of the molar value.

In: Note pIC50 for the compound shown: COc1cc2ncn(-c3cc(OCc4ccccc4S(C)(=O)=O)c(C#N)s3)c2cc1OC [GSK-319347A]
Out: < 5.30

====

- System: Hs-578T
- Test Summary: cells
- Type: functional, cell-based, Homo sapiens
- Setup Conditions: Homo sapiens, Hs-578T
- Description: SANGER: Inhibition of human Hs-578-T cell growth in a cell viability assay.
pIC50: −log10 of the molar value.
Let's look at some compounds and their measured pIC50.

Solved entries (count: 4):
CO[C@H]1C[C@@H]2CC[C@@H](C)[C@@](O)(O2)C(=O)C(=O)N2CCCC[C@H]2C(=O)O[C@H]([C@H](C)C[C@@H]2CC[C@@H](OC(=O)C(C)(CO)CO)[C@H](OC)C2)CC(=O)[C@H](C)/C=C(\C)[C@@H](O)[C@@H](OC)C(=O)[C@H](C)C[C@H](C)/C=C/C=C/C=C/1C [TEMSIROLIMUS] = 7.18
C=C(c1ccc(C(=O)O)cc1)c1cc2c(cc1C)C(C)(C)CCC2(C)C [BEXAROTENE] = < 5.10
Cc1cn(-c2cc(NC(=O)c3ccc(C)c(Nc4nccc(-c5cccnc5)n4)c3)cc(C(F)(F)F)c2)cn1 [NILOTINIB] = < 5.70
Nc1cccc2c1CN(C1CCC(=O)NC1=O)C2=O (configuration not stated) [LENALIDOMIDE] = < 5.30

In: Answer with the recorded pIC50 of Cn1cnc2c(F)c(Nc3ccc(Br)cc3Cl)c(C(=O)NOCCO)cc21 [SELUMETINIB] only.
Out: < 5.40

In: Please give the documented pIC50 of CC1(C)CNc2cc(NC(=O)c3cccnc3NCc3ccncc3)ccc21 [MOTESANIB]
Out: < 5.70

In: Provide one value: measured pIC50 of Nc1ccn([C@@H]2O[C@H](CO)[C@@H](O)C2(F)F)c(=O)n1 [GEMCITABINE]
Out: < 5.99

====

- System: MFM-223
- Test Summary: cells
- Type: functional, cell-based, Homo sapiens
- Setup Conditions: mfm-223
- Description: SANGER: Inhibition of human MFM-223 cell growth in a cell viability assay.
Experimental Readout: IC50 (mM)
Please state the figure in mM; there is no need to write the unit.

In: Look up IC50 of BLEOMYCIN and report it.
Out: 11

====

- System: TGBC24TKB
- Test Summary: cells
- Format: functional, cell-based, Homo sapiens
- Setup Conditions: Homo sapiens, TGBC24TKB
- Description: SANGER: Inhibition of human TGBC24TKB cell growth in a cell viability assay.
Counter-ions that a name gives are not always drawn.
Measured pIC50 values are reported for all entries that follow.
Give only the number. pIC50 is defined as minus log10 of concentration in molar units.

Sample answers from the record:
COc1cc2ncn(-c3cc(OCc4ccccc4C(F)(F)F)c(C(N)=O)s3)c2cc1OC [GW843682X] = 7.35
CC(C)c1ccccc1Cc1cc(C(=O)Nc2ccc(S(=O)(=O)c3ccccc3C(C)(C)C)cc2)c(O)c(O)c1O = 6.64
COC1=CC(c2cc3ccccc3[nH]2)=N/C1=C\c1[nH]c(C)cc1C [OBATOCLAX MESYLATE] = 5.43
CC(=O)O[C@H]1C(=O)[C@@]2(C)[C@H]([C@H](OC(=O)c3ccccc3)[C@]3(O)C[C@H](OC(=O)[C@H](O)[C@@H](NC(=O)c4ccccc4)c4ccccc4)C(C)=C1C3(C)C)[C@]1(OC(C)=O)CO[C@@H]1C[C@@H]2O = 8.12

With those in mind, consider the next compound.
In: Give reported pIC50 for CO[C@H]1C[C@@H]2CC[C@@H](C)[C@@](O)(O2)C(=O)C(=O)N2CCCC[C@H]2C(=O)O[C@H]([C@H](C)C[C@@H]2CC[C@@H](OC(=O)C(C)(CO)CO)[C@H](OC)C2)CC(=O)[C@H](C)/C=C(\C)[C@@H](O)[C@@H](OC)C(=O)[C@H](C)C[C@H](C)/C=C/C=C/C=C/1C (TGBC24TKB)
Out: 6.85

====

Listed next: entries and their corresponding pIC50.
- Tested on: OPM-2;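 note: growth of OPM-2 cells measured with a viability assay, IC50 for suppression of proliferation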
- Test Summary: cells
- Format: functional, cell-based, Homo sapiens
- Setup Conditions: Homo sapiens, OPM-2
- Description: SANGER: Inhibition of human OPM-2 cell growth in a cell viability assay.
pIC50: −log10 of the molar value.

Worked examples follow.
Cc1cc([N+](=O)[O-])ccc1NS(=O)(=O)c1cc(Cl)ccc1Cl = < 4.49
C#Cc1cccc(Nc2ncnc3cc(OCCOC)c(OCCOC)cc23)c1 [ERLOTINIB] = < 5.70
OCCCNc1cc(-c2ccnc(Nc3cccc(Cl)c3)n2)ccn1 = 6.82
COc1cc(-c2nn([C@H]3CC[C@H](N4CCN(C(C)=O)CC4)CC3)c3ncnc(N)c23)ccc1NC(=O)c1cc2ccccc2n1C = < 5.29
COc1cc2ncn(-c3cc(OCc4ccccc4S(C)(=O)=O)c(C#N)s3)c2cc1OC [GSK-319347A] = < 5.30

In: Answer with the recorded pIC50 for the molecule listed here: CC[C@H](CO)Nc1nc(NCc2ccccc2)c2ncn(C(C)C)c2n1 [SELICICLIB]
Out: < 4.80

In: Answer with the recorded pIC50 of Nc1ccn([C@@H]2O[C@H](CO)[C@@H](O)C2(F)F)c(=O)n1 [GEMCITABINE] only.
Out: < 5.99
